Recorded values, source patent US8796245B2.

System: S. aureus SA158 (tet resistant: tetK efflux)
assay-notes: microbe, parasite or virus in culture
Assay type: cell-based
condition-summary: Staphylococcus aureus, read-out: MICs SA158
For each entry below, report its log10(MIC) value.
Lab note - MIC converted to log10 from values in µg/mL.

Known log10(MIC) results, listed for orientation:
CN(C)[C@@H]1C(O)=C(C(N)=O)C(=O)[C@@]2(O)C(O)=C3C(=O)c4c(O)c(NC(=O)CNC(C)(C)C)cc(F)c4C[C@H]3C[C@@H]12 : -1.20
CN(C)[C@@H]1C(O)=C(C(N)=O)C(=O)[C@@]2(O)C(O)=C3C(=O)c4c(O)c(NC(=O)CN5CCCC5)cc(F)c4C[C@H]3C[C@@H]12 : -0.90
CN(C)[C@@H]1C(O)=C(C(N)=O)C(=O)[C@@]2(O)C(O)=C3C(=O)c4c(O)c(NC(=O)CNCC5CC5)cc(F)c4C[C@H]3C[C@@H]12 : -0.30
CN(C)[C@@H]1C(O)=C(C(N)=O)C(=O)[C@@]2(O)C(O)=C3C(=O)c4c(O)c(NC(=O)CN5CCCCC5)cc(F)c4C[C@H]3C[C@@H]12 : -0.30
CN(C)[C@@H]1C(O)=C(C(N)=O)C(=O)[C@@]2(O)C(O)=C3C(=O)c4c(O)c(NC(=O)CN5CC[C@H](O)C5)cc(F)c4C[C@H]3C[C@@H]12 : 1.20

List the reported log10(MIC) of each molecule below.
1. CCN(CC)CC(=O)Nc1cc(F)c2c(c1O)C(=O)C1=C(O)[C@]3(O)C(=O)C(C(N)=O)=C(O)[C@@H](N(C)C)[C@@H]3C[C@@H]1C2
2. CCCN(C)CC(=O)Nc1cc(F)c2c(c1O)C(=O)C1=C(O)[C@]3(O)C(=O)C(C(N)=O)=C(O)[C@@H](N(C)C)[C@@H]3C[C@@H]1C2
3. CN(C)[C@@H]1C(O)=C(C(N)=O)C(=O)[C@@]2(O)C(O)=C3C(=O)c4c(O)c(NC(=O)CC5CC(F)C5)cc(F)c4C[C@H]3C[C@@H]12 (some centres unmarked)
4. CCN(C)CC(=O)Nc1cc(F)c2c(c1O)C(=O)C1=C(O)[C@]3(O)C(=O)C(C(N)=O)=C(O)[C@@H](N(C)C)[C@@H]3C[C@@H]1C2
5. CN(C)[C@@H]1C(O)=C(C(N)=O)C(=O)[C@@]2(O)C(O)=C3C(=O)c4c(O)c(NC(=O)CN5CC[C@@H](O)C5)cc(F)c4C[C@H]3C[C@@H]12
6. CN(C)CC(=O)Nc1cc(F)c2c(c1O)C(=O)C1=C(O)[C@]3(O)C(=O)C(C(N)=O)=C(O)[C@@H](N(C)C)[C@@H]3C[C@@H]1C2

1. -1.50
2. 0.00
3. 0.30
4. -0.90
5. 1.20
6. -0.60
